- system_under_test: Cysteine protease ATG4B (Homo sapiens) (UniProt Q9Y4P1)
- Sequence (Q9Y4P1 whole entry, looked up): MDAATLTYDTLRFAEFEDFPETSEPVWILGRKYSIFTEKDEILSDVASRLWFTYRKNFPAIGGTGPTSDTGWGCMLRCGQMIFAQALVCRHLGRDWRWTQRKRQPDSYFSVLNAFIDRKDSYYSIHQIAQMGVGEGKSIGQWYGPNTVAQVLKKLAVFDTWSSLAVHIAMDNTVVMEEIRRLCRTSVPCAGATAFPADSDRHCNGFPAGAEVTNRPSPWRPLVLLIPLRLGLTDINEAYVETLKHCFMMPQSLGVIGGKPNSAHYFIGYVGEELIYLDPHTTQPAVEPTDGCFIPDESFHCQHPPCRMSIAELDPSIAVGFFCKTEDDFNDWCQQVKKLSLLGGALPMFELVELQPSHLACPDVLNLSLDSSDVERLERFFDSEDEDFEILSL
- experiment_description: re-tested blockers of ATG4B cleavage activity – biochemical, fluorescence, single concentration, confirmation (AID 504757)
- assay_setup: ATG4B protease fluorescent substrate cleavage assay; at 8.33 µM; active compounds read high
This is one part of the list.
Rule: inhibition of 50% or more gives true (1); anything lower gives false (0).

Cc1ccc(CSc2nc(-c3ccccc3)c(C#N)c(=O)[nH]2)cc1 | true (1)
COc1ccc(/C=C2/SC(=O)N(CCCCCC(=O)Nc3ccccc3C(=O)O)C2=S)cc1 | true (1)
O=C1Nc2cc(Cl)c(Cl)cc2N(O)N1c1cc(Cl)cc(Cl)c1 | true (1)
CCOC(=O)C(C)Sc1nc2ccccc2c(=O)n1CC1CCCCC1 (stereo not given) | true (1)
O=C(O)C(c1ccccc1)N1C(=O)/C(=C\c2ccc(-c3cccc(Cl)c3)o2)SC1=S (stereo not given) | false (0)

In: inhibition >= 50% for FC(F)(F)Oc1ccc(NC(=S)NCc2ccccc2)cc1 ?
Out: true (1)

In: inhibition >= 50% for O=C(O)CCn1cc(/C=C/C(=O)c2ccc(Cl)cc2)c(-c2cccc(Br)c2)n1 ?
Out: true (1)

In: inhibition >= 50% for COc1ccc(/C=C2\CCc3ccccc3C2=O)c(OC)c1OC ?
Out: true (1)

In: inhibition >= 50% for Cc1ccc(-n2c(SCC(=O)N/N=C/C=C/c3ccccc3[N+](=O)[O-])nc3ccccc3c2=O)cc1 ?
Out: false (0)
